From: patent US20250376519A1

# pKd listing for each entry below
# target or system: T1, human DLL3 (ACRO, DLL3-H52H4) (human, UniProt Q9NYJ7 27-492)
# T1 construct: Bought
# T1 sequence: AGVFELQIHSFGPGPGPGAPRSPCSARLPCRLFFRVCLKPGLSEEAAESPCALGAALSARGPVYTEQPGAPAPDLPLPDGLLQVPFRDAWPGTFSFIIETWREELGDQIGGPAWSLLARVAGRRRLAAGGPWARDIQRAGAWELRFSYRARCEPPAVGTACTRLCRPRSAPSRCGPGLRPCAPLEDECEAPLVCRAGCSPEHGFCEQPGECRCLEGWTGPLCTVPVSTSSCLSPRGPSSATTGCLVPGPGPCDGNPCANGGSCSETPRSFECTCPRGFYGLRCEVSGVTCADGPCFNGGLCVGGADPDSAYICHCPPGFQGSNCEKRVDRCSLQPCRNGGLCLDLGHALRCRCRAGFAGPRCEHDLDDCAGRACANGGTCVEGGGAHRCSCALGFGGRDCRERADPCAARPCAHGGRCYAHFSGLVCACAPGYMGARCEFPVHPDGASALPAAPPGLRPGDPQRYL
# assay overview: SPR Biacore 8K, Ab captured on Protein A
# Description: Test antibodies were affinity-captured with a Protein A biosensor chip (Cat. #29127556, Cytiva) for 18 seconds, and then the antigens human DLL3 (ACRO, DLL3-H52H4), cynomolgus monkey DLL3 (KACTUS, DLL-RM103), mouse DLL3 (KACTUS, DLL-MM103), human CD3D&3E (ACRO, CDD-H52W1), and monkey CD3D&3E (ACRO, CDD-C52W4) were allowed to flow through the surface of the chip for 180 seconds, followed by 600 seconds of dissociation. […]
pKd: −log10 of the molar value.

{"columns": ["binder", "pKd"],
 "data": [
  ["hu98L1H2 (antibody, human IgG1, kappa, V domains shown) VH: EVQLVESGGGLVQPGGSLRLSCAASGFTFSDYGIHWVRQAPGKGLEWVAYISSGGYTIYYADTVKGRFTISRDNAKNSLYLQMNSLRAEDTAVYYCARGDYEDIFYTMDYWGQGTTVTVSS VL: DIQMTQSPSSLSASVGDRVTITCRASRDITKFLNWYQQKPGKAPKLLIYYTSRLHSGVPSRFSGSGSGTDFTLTISSLQPEDFATYYCQQGNTLPWTFGGGTKVEIKR", 8.71],
  ["hu30L2H4 (antibody, human IgG1, kappa, V domains shown) VH: EVRLVQSGAEVKKPGASVKVSCKASGYTFTDYYMNWVRQAPGQSLEWMGIINPYSGDTSYNQKFRGRVTLTVDKSASTAYMELSSLRSEDTAVYYCARYHYGPHLEGYFDVWGQGTTVTVSS VL: DIVMTQSPDSLAVSLGERATINCKASENVGYVSWYQQKPGQPPKLLIYGASNRYTGVPDRFSGSGSATDFTLTISSLQAEDVAVYHCGQSYSYPLTFGQGTKLEIKR", 8.97]
]}
